- system_tested: Muscarinic acetylcholine receptor M2 (Homo sapiens, UniProt P08172); note: assay procedure not described here
- Sequence (P08172 whole entry): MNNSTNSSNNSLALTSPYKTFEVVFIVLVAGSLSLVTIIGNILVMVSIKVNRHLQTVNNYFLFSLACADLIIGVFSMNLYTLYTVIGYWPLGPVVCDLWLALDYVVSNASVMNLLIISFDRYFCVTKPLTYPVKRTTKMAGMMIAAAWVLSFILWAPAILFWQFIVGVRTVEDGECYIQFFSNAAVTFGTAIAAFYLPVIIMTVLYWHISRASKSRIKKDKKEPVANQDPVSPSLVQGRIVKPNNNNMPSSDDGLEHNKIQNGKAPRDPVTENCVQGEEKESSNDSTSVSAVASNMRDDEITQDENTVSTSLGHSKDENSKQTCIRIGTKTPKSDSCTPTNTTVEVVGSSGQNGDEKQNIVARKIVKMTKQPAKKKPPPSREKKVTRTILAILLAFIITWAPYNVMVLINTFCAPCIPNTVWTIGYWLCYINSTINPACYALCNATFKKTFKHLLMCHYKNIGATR
- Assay type: functional, cell-based
Could you please report measured AC50 for the items listed next?

{"columns": ["compound", "endpoint_result"],
 "data": [
  ["CCOC(=O)O[C@]1(C(=O)COC(=O)CC)CC[C@H]2[C@@H]3CCC4=CC(=O)C=C[C@]4(C)[C@H]3[C@@H](O)C[C@@]21C [PREDNICARBATE]", "> 10 µM"],
  ["CCCCCCOC(=O)NC(=N)c1ccc(NCc2nc3cc(C(=O)N(CCC(=O)OCC)c4ccccn4)ccc3n2C)cc1 [DABIGATRAN ETEXILATE]", "> 30 µM"],
  ["COC(=O)CCc1ccc(OCC(O)CNC(C)C)cc1 (stereo not drawn)", "> 30 µM"]
]}

# batch: return AC50 for each of the 4 compounds below
1. CN1CCCN=C1/C=C/c1cccc(O)c1
2. CC(C)CN(C[C@@H](O)[C@H](Cc1ccccc1)NC(=O)O[C@H]1CCOC1)S(=O)(=O)c1ccc(N)cc1
3. CC(C)C[C@H](NC(=O)[C@H](Cc1ccccc1)NC(=O)c1cnccn1)B(O)O
4. CC(=O)OCC1=C(C(=O)O)N2C(=O)[C@@H](NC(=O)CSc3ccncc3)[C@H]2SC1

Marked response:
> 30 µM
> 10 µM
> 30 µM
> 10 µM

###

Could you please report measured AC50 for the items listed next?
- system_tested: UniProt Q14432
- Sequence (Q14432 whole entry): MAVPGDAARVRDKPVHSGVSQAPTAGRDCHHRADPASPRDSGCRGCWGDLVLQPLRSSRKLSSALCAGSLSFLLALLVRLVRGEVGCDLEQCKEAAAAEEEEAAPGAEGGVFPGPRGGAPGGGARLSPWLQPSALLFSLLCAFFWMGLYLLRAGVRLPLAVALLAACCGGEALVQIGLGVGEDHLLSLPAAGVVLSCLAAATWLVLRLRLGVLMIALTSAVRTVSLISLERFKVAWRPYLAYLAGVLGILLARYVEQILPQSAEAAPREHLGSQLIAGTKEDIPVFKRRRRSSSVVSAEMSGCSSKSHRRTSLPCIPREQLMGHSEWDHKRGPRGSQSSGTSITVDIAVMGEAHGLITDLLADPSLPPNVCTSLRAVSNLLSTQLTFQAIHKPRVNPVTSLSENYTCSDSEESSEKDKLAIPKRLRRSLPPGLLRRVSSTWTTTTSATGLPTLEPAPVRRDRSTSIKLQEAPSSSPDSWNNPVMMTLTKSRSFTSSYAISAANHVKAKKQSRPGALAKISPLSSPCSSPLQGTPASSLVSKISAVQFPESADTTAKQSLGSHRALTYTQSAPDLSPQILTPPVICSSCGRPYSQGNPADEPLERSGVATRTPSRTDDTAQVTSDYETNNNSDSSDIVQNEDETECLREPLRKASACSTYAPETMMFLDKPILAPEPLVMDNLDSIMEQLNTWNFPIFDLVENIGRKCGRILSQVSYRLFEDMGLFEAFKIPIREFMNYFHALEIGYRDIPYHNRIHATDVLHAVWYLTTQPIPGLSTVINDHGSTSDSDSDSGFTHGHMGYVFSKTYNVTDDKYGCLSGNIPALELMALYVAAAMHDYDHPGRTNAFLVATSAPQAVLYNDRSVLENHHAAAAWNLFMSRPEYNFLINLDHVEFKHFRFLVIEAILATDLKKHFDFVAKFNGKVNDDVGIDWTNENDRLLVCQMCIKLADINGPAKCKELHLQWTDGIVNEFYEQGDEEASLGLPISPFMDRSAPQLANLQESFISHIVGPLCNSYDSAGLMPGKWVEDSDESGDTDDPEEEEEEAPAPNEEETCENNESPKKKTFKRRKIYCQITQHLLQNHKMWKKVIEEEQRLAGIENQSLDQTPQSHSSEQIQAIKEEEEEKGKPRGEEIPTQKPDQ
- Assay type: functional

// worked examples, AC50 included
{"columns": ["compound", "endpoint_result"],
 "data": [
  ["CCOc1cc2ncc(C#N)c(Nc3ccc(OCc4ccccn4)c(Cl)c3)c2cc1NC(=O)/C=C/CN(C)C [NERATINIB]", "> 30 µM"],
  ["CN1C2CCCC1CC(NC(=O)c1nn(C)c3ccccc13)C2 (centres undefined) [GRANISETRON]", "> 10 µM"],
  ["NCCCNCCSP(=O)(O)O [AMIFOSTINE]", "> 30 µM"]
]}

Moving on to another compound below.
Exam item: Dear colleague, please send me the reported AC50 for CO/N=C(\C(=O)N[C@@H]1C(=O)N2C(C(=O)O)=C(CSc3nc(C)c(CC(=O)O)s3)CS[C@H]12)c1csc(N)n1 [CEFODIZIME] when you can.
Marked response: > 30 µM

###

Could you please report measured AC50 for the items listed next?
- system_tested: Histamine H2 receptor (Homo sapiens, UniProt P25021); note: assay procedure not described here
- Sequence (P25021 whole entry): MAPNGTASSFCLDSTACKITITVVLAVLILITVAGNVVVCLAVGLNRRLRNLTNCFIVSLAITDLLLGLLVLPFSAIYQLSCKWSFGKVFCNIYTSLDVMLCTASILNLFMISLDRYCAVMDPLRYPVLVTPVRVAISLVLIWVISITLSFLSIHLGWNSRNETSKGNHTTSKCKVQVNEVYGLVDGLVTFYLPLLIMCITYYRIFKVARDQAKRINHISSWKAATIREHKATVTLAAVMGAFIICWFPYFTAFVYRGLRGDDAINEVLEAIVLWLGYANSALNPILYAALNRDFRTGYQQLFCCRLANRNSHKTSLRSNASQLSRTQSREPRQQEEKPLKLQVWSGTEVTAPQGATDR
- Format: functional, cell-based

// worked examples, AC50 included
{"columns": ["molecule", "endpoint_result"],
 "data": [
  ["Cc1ccc(-c2ncc(Cl)cc2-c2ccc(S(C)(=O)=O)cc2)cn1 [ETORICOXIB]", "> 10 µM"],
  ["CS(=O)(=O)NC(=O)CCC/C=C\\C[C@H]1C(=O)C[C@@H](O)[C@@H]1/C=C/[C@@H](O)COc1ccccc1 [SULPROSTONE]", "> 30 µM"]
]}

Exam item: Param request: AC50 | system Histamine H2 receptor (Homo sapiens, UniProt P25021) | item CCN(CC)CCCN(c1ccccc1)C1Cc2ccccc2C1 [APRINDINE]; note: assay procedure not described here
Marked response: > 30 µM

###

- system_tested: Amine oxidase [flavin-containing] A (Homo sapiens, UniProt P21397); note: assay procedure not described here
- Sequence (P21397 whole entry): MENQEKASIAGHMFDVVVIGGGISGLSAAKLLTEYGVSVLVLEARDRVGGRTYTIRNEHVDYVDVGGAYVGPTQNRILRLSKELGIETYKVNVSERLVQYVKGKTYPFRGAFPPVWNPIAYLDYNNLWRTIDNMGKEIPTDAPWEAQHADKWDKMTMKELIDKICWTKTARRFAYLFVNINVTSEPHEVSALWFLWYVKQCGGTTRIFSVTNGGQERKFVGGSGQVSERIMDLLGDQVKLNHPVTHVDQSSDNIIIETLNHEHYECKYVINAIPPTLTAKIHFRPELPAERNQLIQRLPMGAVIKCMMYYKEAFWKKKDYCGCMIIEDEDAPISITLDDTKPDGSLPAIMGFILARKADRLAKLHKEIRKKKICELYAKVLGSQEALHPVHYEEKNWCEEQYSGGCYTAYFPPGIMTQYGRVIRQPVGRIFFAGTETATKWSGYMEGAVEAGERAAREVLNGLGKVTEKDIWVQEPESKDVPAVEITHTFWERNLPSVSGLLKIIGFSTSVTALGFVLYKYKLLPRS
- Assay type: functional
measured_quantity: AC50

// worked examples, AC50 included
{"columns": ["compound", "endpoint_result"],
 "data": [
  ["COc1ccc(-n2nc(C(N)=O)c3c2C(=O)N(c2ccc(N4CCCCC4=O)cc2)CC3)cc1", "> 30 µM"],
  ["O=C(O)c1ccc2nc(-c3cc(Cl)cc(Cl)c3)oc2c1", "18 µM"],
  ["C[C@@H](Cc1ccccc1)N(C)Cc1ccccc1", "> 10 µM"],
  ["NCC1(CC(=O)O)CCCCC1", "> 30 µM"],
  ["CCOCC(O)COc1ccc(NC(=O)CC[S+](C)C)cc1 (stereo not given)", "> 30 µM"]
]}

# batch: return AC50 for each of the 5 compounds below
1. O=C(O)CCCC[C@@H]1SC[C@@H]2NC(=O)N[C@@H]21
2. CS(=O)(=O)NC(=O)CCC/C=C\C[C@H]1C(=O)C[C@@H](O)[C@@H]1/C=C/[C@@H](O)COc1ccccc1
3. CC(=O)SCC(Cc1ccccc1)C(=O)NCC(=O)OCc1ccccc1 (stereo not given)
4. Nc1nnc(-c2cccc(Cl)c2Cl)c(N)n1
5. CCN(CC)CCCN(c1ccccc1)C1Cc2ccccc2C1

Marked response:
1: > 10 µM; 2: > 30 µM; 3: > 30 µM; 4: 16 µM; 5: > 30 µM
